Cited source for all entries: ChEMBL document CHEMBL1156083

TEST NAME: Bioavailability in rat
Assay type: ADME, organism-based
CONDITION PARAMETERS: in vivo
MEASURE: bioavailability (%)
Numbers only, in %.

Can you share its bioavailability? I mean this molecule: CCN(CC)C(=O)c1ccc(N(c2cccc(O)c2)C2CCN(CCc3ccccc3)CC2)cc1
25
